The reported numbers originate from ChEMBL document CHEMBL1201862.

# Test system: OVCAR-5
# EXPERIMENT: NCI tumour cell line growth inhibition, 48 h
Active and inactive are the calls of the source. Rule as the data show it: active = GI50 up to about 1.1 µM and inactive = higher.
// classify into active, inactive

Problem: # outcome recorded in this test, key = OC[P+](CO)(CO)C12CC3CC(CC(C3)C1)C2
Solution: inactive

Problem: # outcome recorded in this test, key = COc1cc(C/C=C/c2ccccc2)c(OC)cc1O [VIOLASTYRENE]
Solution: inactive

Problem: # outcome recorded in this test, key = CCN(CC)c1ccc(C(=C2C=CC(=[N+](CC)CC)C=C2)c2ccc(N(CC)CC)cc2)cc1
Solution: active

Problem: # outcome recorded in this test, key = COC(=O)CCC1(CCC(=O)OC)CCCCCCC(CCC(=O)OC)(CCC(=O)OC)C(=O)C1=O
Solution: inactive

Problem: # outcome recorded in this test, key = COc1cc(C(=C2SCCS2)c2nccc3cc(OC)c(OC)cc23)c([N+](=O)[O-])cc1OC
Solution: inactive

Problem: # outcome recorded in this test, key = N#Cc1nnn(-c2ccc(Br)cc2)c1O
Solution: inactive

Problem: # outcome recorded in this test, key = CCC(=O)OCN(C)c1nc(N(C)COC(=O)CC)nc(N(C)COC(=O)CC)n1
Solution: inactive

Problem: # outcome recorded in this test, key = N#Cc1c(-c2ccc([N+](=O)[O-])cc2)c(C#N)c(=O)n(NS(=O)(=O)c2ccccc2)c1O
Solution: inactive

Problem: # outcome recorded in this test, key = Cc1ccc(Oc2ccc(C(=O)c3cccc(C(=O)c4ccc(Oc5ccc(C)cc5)cc4)n3)cc2)cc1
Solution: inactive

Problem: # outcome recorded in this test, key = Cc1ccc(S(=O)(=O)CNC(=S)CCCC(=S)NCS(=O)(=O)c2ccc(C)cc2)cc1
Solution: inactive

====

# System: EKVX
# EXPERIMENT: NCI tumour cell line growth inhibition, 48 h
Calls of active or inactive are those of the source. Cut-off read from the data, not from the text of the source: active = GI50 up to about 1.1 µM and inactive = higher.
// classify into active, inactive

As a guide, the following entries are already answered.
{"COMPOUND": "N#CC1C(=O)C(=O)N(c2ccccc2)C1=O (stereo not drawn)", "ASSIGNED_CLASS": "inactive"}
{"COMPOUND": "Cn1c(=O)c2nc3c(=O)n(C)c(=O)n(CC(N)=O)c3nc2n(C)c1=O", "ASSIGNED_CLASS": "inactive"}
{"COMPOUND": "O=C(CCc1ccccc1)CC1OC(=O)C(Cl)=C1Cl (stereo not drawn)", "ASSIGNED_CLASS": "inactive"}

Problem: # outcome recorded in this test, key = O=C1N=CN=C2C=CC(Cl)=C(I)C12 (stereo not drawn)
Solution: inactive

Problem: # outcome recorded in this test, key = N=C(N)N/N=C\c1c(-c2cccc([N+](=O)[O-])c2)nc2sc(Cl)cn12
Solution: inactive

====

# Test system: LXFL 529
# EXPERIMENT: NCI tumour cell line growth inhibition, 48 h
Activity calls are given as the source filed them. Rule as the data show it: active = GI50 up to about 1.1 µM and inactive = higher.
// classify into label 1 (active), label 0 (inactive)

{"MOLECULE": "O=C(O)c1nc(-c2ccc(Cl)c(Cl)c2)nc2ccc(Cl)cc12", "ASSIGNED_CLASS": "label 0"}
{"MOLECULE": "N#C[C-](C#N)[n+]1ccc(Cl)cc1", "ASSIGNED_CLASS": "label 0"}
{"MOLECULE": "COc1cc(C(=C2SCCS2)c2nccc3cc(OC)c(OC)cc23)c([N+](=O)[O-])cc1OC", "ASSIGNED_CLASS": "label 0"}
{"MOLECULE": "CCN1c2ccccc2-c2c3c1cc(C)cc3c1ccccc1[n+]2CC", "ASSIGNED_CLASS": "label 1"}
{"MOLECULE": "C[n+]1c2ccccc2c(NCC(=O)O)c2ccccc21", "ASSIGNED_CLASS": "label 0"}
{"MOLECULE": "COC(=O)C1=Cc2c(OC)cc(OC)c(OC)c2[C@H](c2cc(OC)c(OC)cc2OC)C1C(=O)OC (stereo partly specified)", "ASSIGNED_CLASS": "label 0"}

Problem: # outcome recorded in this test, key = NC1C(O)C(O)C(CO)OC1n1cc(F)c(=O)[nH]c1=O (stereo unspecified)
Solution: label 0

Problem: # outcome recorded in this test, key = CCOC(=O)CCc1c(C)c2c(OC)cc(OC)cc2oc1=O
Solution: label 0

Problem: # outcome recorded in this test, key = O=C(c1ccccc1)c1c(CC(O)c2ccccc2)n(C(=O)c2ccccc2)c2ccccc12 (stereo unspecified)
Solution: label 0

Problem: # outcome recorded in this test, key = O=C(c1ccccc1)c1cccc(C(=O)c2ccccc2)c1
Solution: label 0

Problem: # outcome recorded in this test, key = O=C(Cc1nc2ccccc2s1)C(=O)Nc1cccc(C(F)(F)F)c1
Solution: label 0

====

In this section we review reported GI50 values for a set of compounds.
# Test system: NCI/ADR-RES
# EXPERIMENT: NCI tumour cell line growth inhibition, 48 h
Counter-ions that a name gives are not always drawn. The source made the active and inactive calls. No stated cut-off is given here; in the data, active = GI50 up to about 1.1 µM and inactive = higher.

Worked cases, answers included:
{"COMPOUND": "CC(CN1c2ccccc2Sc2ccccc21)N(C)C (stereo not given) [PROMETHAZINE HYDROCHLORIDE]", "MEASURED_VALUE": "15.8 µM (inactive)"}
{"COMPOUND": "COc1cc(C2C3=C(N=C4SC(C(C)=O)=C(C)N42)c2ccccc2CC3)cc(OC)c1OC (stereo not given)", "MEASURED_VALUE": "78.9 µM (inactive)"}

Problem: Please list GI50 recorded for the compound Oc1cn(-c2ccc(Cl)cc2)nc1-c1nnc(-c2ccccc2)o1
Solution: 0.215 µM (active)

Problem: Please list GI50 recorded for the compound CCOC(CN(C)C(=O)Nc1ccc(Cl)c(Cl)c1)OCC
Solution: > 10 µM (inactive)

====

In this section we review reported GI50 values for a set of compounds.
# Test system: SN12C
# EXPERIMENT: NCI tumour cell line growth inhibition, 48 h
Activity calls are given as the source filed them. Rule as the data show it: active = GI50 up to about 1.1 µM and inactive = higher.

Worked cases, answers included:
{"COMPOUND": "N#C/C(=C\\c1cccc(O)c1)C(N)=O", "TARGET_OF_ASSAY": "SN12C", "MEASURED_VALUE": "> 100 µM (inactive)"}
{"COMPOUND": "CCCCCCCCCCCCCCCCCCNc1ccn(C2OC(COP(=O)(O)OCC3OC(n4ccc(N)nc4=O)C(O)C3O)C(O)C2O)c(=O)n1 (stereo unspecified)", "TARGET_OF_ASSAY": "SN12C", "MEASURED_VALUE": "65 µM (inactive)"}
{"COMPOUND": "O=S(=O)(c1ccccc1)N1CCC1c1ccccc1 (stereo unspecified)", "TARGET_OF_ASSAY": "SN12C", "MEASURED_VALUE": "> 100 µM (inactive)"}
{"COMPOUND": "CCOC(=O)C1S/C(=N\\c2ccc(Cl)cc2Cl)N=C1C (stereo unspecified)", "TARGET_OF_ASSAY": "SN12C", "MEASURED_VALUE": "> 100 µM (inactive)"}
{"COMPOUND": "CCCNC(C#N)c1ccc(C(C#N)NCCC)cc1 (stereo unspecified)", "TARGET_OF_ASSAY": "SN12C", "MEASURED_VALUE": "> 100 µM (inactive)"}
{"COMPOUND": "N#Cc1c(-c2ccc([N+](=O)[O-])cc2)c(C#N)c(=O)n(NS(=O)(=O)c2ccccc2)c1O", "TARGET_OF_ASSAY": "SN12C", "MEASURED_VALUE": "> 100 µM (inactive)"}
{"COMPOUND": "C=C1C(=O)OC2C1C(OC(=O)/C(C)=C/C)CC(O)(CCl)C1C(O)C=C(C)C21O (stereo unspecified)", "TARGET_OF_ASSAY": "SN12C", "MEASURED_VALUE": "14.4 µM (inactive)"}
{"COMPOUND": "CCCNC(=O)NNC(=O)c1c[nH]c2nc(C)ccc2c1=O", "TARGET_OF_ASSAY": "SN12C", "MEASURED_VALUE": "> 100 µM (inactive)"}

Problem: Please list GI50 recorded for the compound O=C1c2ccccc2C(O)(C(=O)O)C1(O)CC=C(Cl)Cl (stereo unspecified)
Solution: > 125 µM (inactive)

Problem: Please list GI50 recorded for the compound O=c1cc(N2CCCC2)[nH]c(=O)n1-c1ccccc1
Solution: > 100 µM (inactive)

Problem: Please list GI50 recorded for the compound CC(C)(C)O/N=C/c1cc(NC(=S)c2ccsc2)ccc1Cl
Solution: 17.1 µM (inactive)

====

# Test system: UO-31
# EXPERIMENT: NCI tumour cell line growth inhibition, 48 h
Calls of active or inactive are those of the source. No stated cut-off is given here; in the data, active = GI50 up to about 1.1 µM and inactive = higher.
// classify into active, inactive

{"COMPOUND": "O=S(=O)(O)c1ccc2c(/N=N/c3cccc4ccccc34)c(O)c(S(=O)(=O)O)cc2c1", "ASSIGNED_CLASS": "inactive"}
{"COMPOUND": "CCOC(=O)/C(SC#N)=C(/N)N1CCCC1", "ASSIGNED_CLASS": "inactive"}
{"COMPOUND": "CC1(C)N=C(N)N=C(N)N1c1ccc(CCc2ccccc2)cc1", "ASSIGNED_CLASS": "inactive"}
{"COMPOUND": "CC(=O)OC1COC(N2CCc3ccccc32)C(OC(C)=O)C1OC(C)=O (configuration not stated)", "ASSIGNED_CLASS": "inactive"}
{"COMPOUND": "O=C(CCc1ccccc1)CC1OC(=O)C(Cl)=C1Cl (configuration not stated)", "ASSIGNED_CLASS": "inactive"}

For the next question, use this compound.
Problem: # outcome recorded in this test, key = Cc1ccc(Oc2ccc(C(=O)c3cccc(C(=O)c4ccc(Oc5ccc(C)cc5)cc4)n3)cc2)cc1
Solution: inactive
